target.or.test.system: Munc13-1 C1 (WT) (Rattus norvegicus, UniProt Q62768, E582H)
experimental.details: intrinsic fluorescence quenching, logistic fit
Field: pEC50. Provide a value for each of the compounds that follow.
Give bare numbers, as −log10 of the molar value.

INSERT INTO measurements (query_smiles, assay_result) VALUES
  ('CCCCCCCCO', 2.96);

Memo: "CCCCO" , reported pEC50: 1.12

====

Field: pEC50. Provide a value for each of the molecules that follow.
target.or.test.system: Munc13-1 C1 (WT) (Rattus norvegicus, UniProt Q62768)
experimental.details: intrinsic fluorescence quenching, logistic fit
Answers are plain numbers, as −log10 of the molar value.

Known pEC50 results, listed for orientation:
INSERT INTO measurements (query_smiles, assay_result) VALUES
  ('CCO', 1.29),
  ('CCCCO', 1.59);

Continue with the next molecule.
Memo: "CCCCCCCCO" , reported pEC50: 3.15
